tgt: T1, Human Serum Albumin (human, UniProt P02768 25-609)
T1 construct: ELISA: albumin coated on plates; pull-down: endogenous albumin in normal human serum; also called HSA; Human SA
assay: pull-down of endogenous albumin from human serum
reportedMetric: binding result

{"binder": "A10V, H73A (designed binder, Variant of B7; not shown: His tag: FN3 domains were purified as His-tagged proteins) MLPAPKNLVVSRVTEDSARLSWTAPDAAFDSFNIAYWEPGIGGEAIWLRVPGSERSYDLTGLKPGTEYKVWIAGVKGGASSPPLIARFTT", "reportedMetric": "binding result", "valueMeasured": "no binding"}
{"binder": "A10V, W47A (designed binder, Variant of B7; not shown: His tag: FN3 domains were purified as His-tagged proteins) MLPAPKNLVVSRVTEDSARLSWTAPDAAFDSFNIAYWEPGIGGEAIALRVPGSERSYDLTGLKPGTEYKVWIHGVKGGASSPPLIARFTT", "reportedMetric": "binding result", "valueMeasured": "no binding"}
{"binder": "A10V, I85A (designed binder, Variant of B7; not shown: His tag: FN3 domains were purified as His-tagged proteins) MLPAPKNLVVSRVTEDSARLSWTAPDAAFDSFNIAYWEPGIGGEAIWLRVPGSERSYDLTGLKPGTEYKVWIHGVKGGASSPPLAARFTT", "reportedMetric": "binding result", "valueMeasured": "no binding"}
{"binder": "A10V, W71A (designed binder, Variant of B7; not shown: His tag: FN3 domains were purified as His-tagged proteins) MLPAPKNLVVSRVTEDSARLSWTAPDAAFDSFNIAYWEPGIGGEAIWLRVPGSERSYDLTGLKPGTEYKVAIHGVKGGASSPPLIARFTT", "reportedMetric": "binding result", "valueMeasured": "no binding"}
